- Condition Set: in acetonitrile, 328.15 K
Property Measured: solubility (mole fraction)
Keep it simple and answer with nothing but the number.

Query string: Find the recorded solubility (mole fraction) belonging to "Cl.O=C(O)c1cn(-c2ccc(F)cc2)c2cc(N3CCNCC3)c(F)cc2c1=O" and report it.
Result string: 0.00054

###

- Condition Set: in methanol, 323.15 K
Property Measured: solubility (mole fraction)
Keep it simple and answer with nothing but the number.

Query string: Find the recorded solubility (mole fraction) belonging to "Cl.O=C(O)c1cn(-c2ccc(F)cc2)c2cc(N3CCNCC3)c(F)cc2c1=O" and report it.
Result string: 0.00457
